Tested on: MDA-MB-231 breast
Test: NCI-60 one-dose screen, 48 h
Conditions: 10 µM
About 83,000 compounds went through this panel and 20% of them were active in at least one assay; those are over-represented in the sample as a whole. Activity calls are given as the source filed them. How the source made its calls: active means growth percent below 10; inactive means the rest.
Outcomes: active, inactive

{"columns": ["COMPOUND", "ASSIGNED CLASS"],
 "data": [
  ["O=C(NCc1cn(Cc2cccc(Oc3ccccc3)c2)nn1)c1cccnc1Nc1ccccc1", "inactive"],
  ["CC(=O)n1nc(C(=O)OC(C)(C)C)c2cc(F)c(F)cc21", "inactive"],
  ["Cc1cc(/C=C2\\SC(=Nc3ccccc3)N(C3CCCC3)C2=O)c(C)n1-c1ccc(Cl)cc1", "active"],
  ["CCN(CC)CCn1c(=N)n(CC(O)c2ccc(Cl)c(Cl)c2)c2ccccc21 (stereo not drawn)", "inactive"],
  ["Cc1nc2ccc(-n3c(-c4ccc(Cl)cc4)nc4ccccc4c3=O)cc2n1Cc1ccccc1", "inactive"],
  ["CCOC(=O)C(=O)Cc1cccnn1", "inactive"],
  ["CNC(=O)c1cc(Oc2ccc(NC(=O)Nc3ccc(Cl)c(OC(C)C)c3)c(F)c2)ccn1", "inactive"],
  ["CCCCCCCCCCCCCCCCCBr", "inactive"],
  ["COc1ccc(C(=O)c2sc3nc(-c4cccs4)ccc3c2N)cc1OC", "inactive"],
  ["CCCCCCCC/C=C/CCCCCCCCC1=NCCN1CCO", "inactive"],
  ["Nc1cc2c(cc1Cl)-c1ccc(Cl)cc1C2=O", "inactive"],
  ["COc1cc(-c2nc3ccc(C)cc3[nH]2)ccc1OCC(=O)N=Nc1c(O)[nH]c2ccccc12", "active"],
  ["COc1cc(C(c2c[nH]c3ccccc23)N2CCCC2)ccc1OCc1ccccc1 (stereo not drawn)", "inactive"],
  ["Nc1ncncc1-c1ccc(F)cc1", "inactive"],
  ["CCCCCCCCCCCCCCCCn1cc[n+](C)c1", "active"],
  ["C/C(=N\\NC(=O)c1sc(=S)n(C)c1N)c1cc2ccccc2o1", "inactive"],
  ["c1ccc(COCC[P+](c2ccccc2)(c2ccccc2)c2ccccc2)cc1", "active"],
  ["COC1OC2COC(c3ccccc3)OC2C(=O)C1NC(=O)c1ccccc1 (stereo not drawn)", "inactive"],
  ["FC(F)(F)c1ccc(-c2ncc(-c3ccc(C(F)(F)F)cc3)c(NCc3cc(C(F)(F)F)cc(C(F)(F)F)c3)n2)cc1", "inactive"],
  ["CCCOCC(O)CNCCN (stereo not drawn)", "inactive"],
  ["CC(=O)Nc1nc(C)c(C(=O)N/N=C/c2cccn2C)s1", "inactive"],
  ["COc1cc(-c2cc(-c3cc(OC)c(OC)c(OC)c3)nc3nc(N)[nH]c(=O)c23)ccc1Oc1ccnc2cc(Cl)ccc12", "inactive"],
  ["COCCOC(=O)NC(=O)Nc1ccc(/C(=N/O)c2ccc(Cl)cc2)cc1", "inactive"],
  ["Cc1nnc2c3nnc(-c4ccc(Cl)cc4)n3c3ccccc3n12", "inactive"],
  ["COc1ccc(-c2nnc(COc3ccc(NC(=O)Nc4ccccc4)cc3F)o2)cc1", "inactive"],
  ["CC(=O)/C(=C\\c1ccc(Cl)cc1)c1ccccc1", "inactive"],
  ["COc1cc(-c2c(C#N)c(N)n3c(nc4ccccc43)c2C#N)cc(Br)c1OC", "inactive"],
  ["O=CNc1c(Cl)cc2c(c1Cl)Cc1cc([N+](=O)[O-])ccc1-2", "inactive"],
  ["O=[N+]([O-])c1ccc2c(c1)Cc1cc(I)ccc1-2", "inactive"],
  ["CCCCCCCCCCCCCCCC(=O)N1CCN(C)CC1", "inactive"],
  ["CCOc1nc(-c2ccccc2)cc2c(O)c(C(=O)N/N=C/c3ccc(OC)cc3)[nH]c(=O)c12", "inactive"],
  ["CCOC(=O)c1c(Cl)c2c(n1Cc1cccc(OC)c1)-c1oncc1CC2", "inactive"],
  ["O/N=C1\\CCC2CCCCC2C1 (stereo not drawn)", "inactive"]
]}
